pEC50: recorded values
- system under test: human TGR5 (Homo sapiens, UniProt Q8TDU6)
- Sequence (Q8TDU6 whole entry): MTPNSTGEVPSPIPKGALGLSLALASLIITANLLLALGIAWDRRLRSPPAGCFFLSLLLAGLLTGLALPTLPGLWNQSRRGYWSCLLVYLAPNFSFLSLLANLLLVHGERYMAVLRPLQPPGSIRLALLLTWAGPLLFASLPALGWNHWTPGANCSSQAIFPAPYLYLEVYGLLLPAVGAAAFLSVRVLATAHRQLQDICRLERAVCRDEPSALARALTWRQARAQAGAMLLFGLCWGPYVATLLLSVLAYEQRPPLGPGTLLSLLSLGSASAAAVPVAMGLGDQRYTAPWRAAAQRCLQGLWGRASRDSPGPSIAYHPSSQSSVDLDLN
- test summary: cAMP production assay in HEK293-TGR5 cells
- protocol conditions: HEK293 cells stably expressing human TGR5; 30 minutes stimulation; LANCE cAMP TR-FRET; read-out: cAMP Production in 293-TGR5 Cells EC50
pEC50: −log10 of the molar value.

# annotated cases, reported pEC50 shown
{"columns": ["mol smiles", "pEC50"],
 "data": [
  ["CSc1ccc2cc(CNCc3ccc(C(F)(F)F)cc3)c(-c3ccsc3)nc2c1", "< 5.00"],
  ["COc1ccc2cc(CNCc3ccncc3)c(-c3ccsc3)nc2c1", "< 5.00"],
  ["COc1ccc2cc(CNCCc3ccc(Cl)cc3)c(-c3ccncc3)nc2c1", "> 5.00"],
  ["COc1ccc2cc(CNCCc3ccc(Cl)cc3)c(-c3nccs3)nc2c1", "< 5.00"],
  ["COc1ccc2cc(CNC(=O)COc3cccc4ncccc34)c(-c3ccsc3)nc2c1", "> 5.00"]
]}

Reported pEC50, compound `COc1ccc2cc(CNCc3ccc(C(F)(F)F)cc3)c(Sc3ccncc3)nc2c1` : ____ < 5.00

Recorded pEC50 for `Cc1cc2nc(-c3ccsc3)c(CNCCc3ccc(Br)cc3)cc2cc1O` , please? < 5.00

Fill in: pEC50 of `COc1ccc2cc(CNCc3ccc(C(F)(F)F)cc3)c(-c3cnn(C)c3)nc2c1` is ___ > 5.00

For the compound `FC(F)(F)Oc1ccc2cc(CNCCc3ccc(Cl)cc3)c(-c3ccsc3)nc2c1` , what pEC50 is on record? < 5.00

Can you share its pEC50? I mean this compound: `COc1cc(OC)c2cc(CNCc3ccc(C(F)(F)F)cc3)c(-c3ccsc3)nc2c1` > 5.00

pEC50 lookup needed for `COc1ccc2cc(CN(CCc3ccc(Cl)cc3)C(C)=O)c(-c3ccsc3)nc2c1` , thanks. < 5.00
